Target: Nuclear receptor ROR-gamma (Mus musculus) (UniProt P51450)
Sequence (P51450 whole entry, looked up): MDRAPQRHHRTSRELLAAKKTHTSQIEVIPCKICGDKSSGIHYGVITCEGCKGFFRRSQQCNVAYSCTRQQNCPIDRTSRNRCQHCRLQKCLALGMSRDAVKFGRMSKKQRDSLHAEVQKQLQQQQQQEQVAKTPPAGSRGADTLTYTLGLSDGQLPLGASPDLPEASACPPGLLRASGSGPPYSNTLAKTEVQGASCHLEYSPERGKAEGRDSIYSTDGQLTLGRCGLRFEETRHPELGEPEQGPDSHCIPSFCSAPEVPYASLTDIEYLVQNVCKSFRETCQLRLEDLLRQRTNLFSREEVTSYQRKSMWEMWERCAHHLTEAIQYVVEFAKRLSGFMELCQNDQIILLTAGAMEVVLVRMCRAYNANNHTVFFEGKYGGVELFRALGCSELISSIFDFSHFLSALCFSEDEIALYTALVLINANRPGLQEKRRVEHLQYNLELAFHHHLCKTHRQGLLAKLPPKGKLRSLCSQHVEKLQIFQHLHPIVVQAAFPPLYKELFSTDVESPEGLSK
Assay: qHTS for inhibitors of ROR gamma transcriptional activity; note: nearly all actives have a fitted effect of over 60% in size
Details: Drosophila S2 Gal4-RORgamma UAS-luciferase reporter, 20 h; series mostly up to 53.6 µM
Among all 310,000 compounds or so, about 17,000 (5.5%) were called active. Inconclusive results (about 11%) are left out. Calls come from the whole dose curve; as a rule, active = well fitted inhibition curve with a large enough effect; inconclusive = small, poorly fitted or top-dose-only effect, or effect the other way; inactive = no such curve, though single readings can be large or run the other way. This is one part of a sample in which actives are shown more often than they occur.
Just give me one of these, please: TRUE for active, FALSE for inactive

Solved entries:
>>> discrete_label("O=C(Nc1ccc2c(c1)OCCO2)c1cnccn1")
"FALSE"
>>> discrete_label("COc1ccc(-n2c(=O)[nH]c3cc(C(=O)NCCc4ccc(OC)c(OC)c4)ccc3c2=O)c(OC)c1")
"FALSE"
>>> discrete_label("Clc1cccc(CN2COc3c(cc(Cl)c4cccnc34)C2)c1")
"TRUE"

Now turn to the next compound.
Query :: Answer briefly: the call reported for `CSCc1cc(N(C)C)nc(SCc2ccc(Cl)cc2Cl)n1` in this assay.
Result :: TRUE

---

Molecular target: Nuclear receptor ROR-gamma (Mus musculus)
Assay: qHTS for inhibitors of ROR gamma transcriptional activity; note: nearly all actives have a fitted effect of over 60% in size
Conditions: Drosophila S2 Gal4-RORgamma UAS-luciferase reporter, 20 h; series mostly up to 53.6 µM
Hit rate of the full screen: of about 310,000 compounds, about 17,000 (5.5%) were called active. Not shown: some 11% with an inconclusive outcome. The call rests on the fitted dose curve; in most records, active means well fitted inhibition curve with a large enough effect; inconclusive means small, poorly fitted or top-dose-only effect, or effect the other way; inactive means no such curve, though single readings can be large or run the other way. This is one part of a sample in which actives are shown more often than they occur.
Just give me one of these, please: active, inactive

>>> discrete_label("CCCNC(=O)CCc1c(C)nc2c(c(C)nn2-c2ccccc2)c1C")
"inactive"

Query :: Answer briefly: the call reported for `O=C(/C=C/c1ccc(F)cc1)NCCNC(=O)/C=C/c1ccc(F)cc1` in this assay.
Result :: inactive

Query :: Answer briefly: the call reported for `O=C(/C=C/c1ccc(F)cc1)NC(=S)NNC(=O)c1cccnc1` in this assay.
Result :: active

Query :: Answer briefly: the call reported for CCN(CC)CCN1C(=O)C2C(C(=O)Nc3ccc(Br)cc3)C3C=CC2(O3)C1C(=O)NC1CCCCC1 (configuration not stated) in this assay.
Result :: inactive

Query :: Answer briefly: the call reported for `Cc1cc(/C=N/n2cnnc2)c(C)n1-c1cccc(C(=O)O)c1` in this assay.
Result :: inactive

Query :: Answer briefly: the call reported for `NC(=O)N/N=C\c1cccs1` in this assay.
Result :: inactive

Query :: Answer briefly: the call reported for `CCOc1ccc(C(=O)Nc2ccc(S(=O)(=O)Nc3cc(C)on3)cc2)cc1` in this assay.
Result :: inactive

Query :: Answer briefly: the call reported for `Cc1ccc(Nc2nc(N)nc(CSc3nnc(C)s3)n2)cc1` in this assay.
Result :: inactive

---

Target: Nuclear receptor ROR-gamma (Mus musculus)
Assay: qHTS for inhibitors of ROR gamma transcriptional activity; note: nearly all actives have a fitted effect of over 60% in size; note: potency is the fitted concentration of half-maximal effect
Details: Drosophila S2 Gal4-RORgamma UAS-luciferase reporter, 20 h; series mostly up to 53.6 µM
The whole screen tested about 310,000 compounds, of which about 17,000 (5.5%) were called active. Not shown: some 11% with an inconclusive outcome. This is one part of a sample in which actives are shown more often than they occur.
ASSAY_ENDPOINT: Potency

Sample answers from the record:
>>> meas_value("O=C1CSC(=S)N1c1ccc(O)cc1")
"12.6 µM (active)"
>>> meas_value("O=c1c2cc(Br)ccc2nc(-c2cccc(Cl)c2)n1O")
"12.6 µM (active)"
>>> meas_value("CC(C)(C)C(=O)Cn1c(NCCO)nc2ccccc21")
"inactive"
>>> meas_value("O=C(Cc1ccc(F)cc1)N/N=C/c1ccc2c(c1)OCO2")
"inactive"
>>> meas_value("Cc1cc(=O)[nH]c(N/N=C/c2ccc3c(c2)OCCO3)n1")
"inactive"
>>> meas_value("CC(=O)NCCc1nc2cc(NC(=O)c3ccccc3)ccc2n1C")
"inactive"
>>> meas_value("COC(=O)C1(C)CC1(c1ccccc1)c1ccccc1 (stereo not given)")
"inactive"
>>> meas_value("Cn1sc(NC(=O)c2ccccc2)nc1=O")
"inactive"
>>> meas_value("CC(C)NS(=O)(=O)c1ccc(OCC(=O)NC2CCCCCC2)cc1")
"inactive"
>>> meas_value("Cn1c(NC(=O)c2ccccc2)nc2ccccc21")
"1 µM (active)"

Query :: Given the entry `Cc1noc(C)c1/C=N/Nc1ccc2ccccc2n1` , report its measured Potency.
Result :: inactive

Query :: Given the entry `COc1cc(N2C(=O)CSC2=S)cc(OC)c1OC` , report its measured Potency.
Result :: inactive

Query :: Given the entry `COc1cccc(NC(=O)c2nn(-c3ccc(OC)cc3OC)c(=O)c3ccccc23)c1` , report its measured Potency.
Result :: inactive

Query :: Given the entry `Cc1cc(C)nc(NC2=NCC(=O)N2c2ccc(Cl)cc2)n1` , report its measured Potency.
Result :: 0.224 µM (active)

Query :: Given the entry `COc1ccc(CCNS(=O)(=O)c2ccc(F)cc2)cc1OC` , report its measured Potency.
Result :: inactive

Query :: Given the entry CN(CC1CCCO1)S(=O)(=O)c1ccc(C(=O)Nc2ccc(F)cc2)cc1 (stereo not given) , report its measured Potency.
Result :: inactive

Query :: Given the entry `COc1cccc(NC(=S)NC(=O)c2c(Cl)c(C)nn2C)c1` , report its measured Potency.
Result :: 3.55 µM (active)

Query :: Given the entry `CCc1nc2ccccc2n(CCOCCOCCn2c(=O)c(CC)nc3ccccc32)c1=O` , report its measured Potency.
Result :: inactive

Query :: Given the entry `CCn1c(NC(=O)c2nn(C)cc2Br)nc2ccccc21` , report its measured Potency.
Result :: 2.51 µM (active)

Query :: Given the entry `O=S(=O)(Cc1nnnn1-c1ccc(Br)cc1)c1ccc(F)cc1` , report its measured Potency.
Result :: inactive

Query :: Given the entry Cc1c(C(=O)NC(C)C2CC3CCC2C3)cccc1[N+](=O)[O-] (stereo not given) , report its measured Potency.
Result :: inactive

Query :: Given the entry `O=C1CSC(=S)N1c1ccc(Cl)c(Cl)c1` , report its measured Potency.
Result :: inactive

Query :: Given the entry `CC(C)c1ccc(NC(=O)Cn2ncc3ccccc32)cc1` , report its measured Potency.
Result :: inactive

Query :: Given the entry `COc1ccc(CCNS(=O)(=O)c2ccc(Cl)s2)cc1OC` , report its measured Potency.
Result :: inactive

Query :: Given the entry `Cc1ccc(-c2nc(-c3ccncc3)no2)c(C)c1` , report its measured Potency.
Result :: inactive
